- target.system: SARS-CoV-1 spike antigens (bead panel) (SARS-CoV-1, UniProt P59594 14-1195)
- method.description: multiplex bead assay
measurement.kind: binding result

>  <binder>
COV_1145 (antibody, V domains shown, human IgG1) VH: QVQLVESGGGVVQPGRSLRLSCAASGFTFSSYGMHWVRQAPGKGLEWVAVIWYDGSNKYYADSVKGRFTISRDNSKNTLYLQMNSLRVEDTAVYYCAREGQLGATGLDCWGQGTLVSVSS VL: SYELTQPPSVSVSPGQTARITCSGDALPKKYAYWYQQKSGQAPVLVIYEDSKRPSGIPERFSGSSSGTMATLTISGAQVEDEADYYCYSTDNSGNHWVFGGGTKLTVLG

>  <binding result>
no binding

$$$$
>  <binder>
COV_2169 (antibody, V domains shown, human IgG1) VH: EVQLVESGGGVVQPGRSLRLSCAASGFTFSRYAMHWVRQAPGKGLEWVAVISYEGSNKYYADSVKGRFTISRNNSNNTLSLQMNSLRPDDTAVYYCVRSGGHYFDAFDLWGQGTMVTVSS VL: EIVLTQSPGTLSLSPGERATLSCRASQSVSRNYVAWYQQKPGQAPRLLIYGASSRATGIPDRFSGSGSGTDFTLTISRLEPEDFALYYCQQYGSSYTFGQGTKLEIKR

>  <binding result>
no binding

$$$$
>  <binder>
COV_2056 (SEQ ID NO:792/797) (antibody, V domains shown) VH: EVQLVESGGGVVQPGRSLRLSCAASGFTFSIYGMHWVRQAPGKGLEWVALISYDGTNKYYADSVKGRFSISRDDSKNTLYLQMNSLRPEDTAVYYCAKVLMMGDSSGFSLGDAFDIWGQGTMVTVSS VL: DIQMTQSPSSVSASVGDRVTITCRASQGISNWLAWYQQKPGKAPKLLIYAASSLQSGVPSRFSGSVSGTDFTLTISSLQPEDFATYYCQQANSFPLTFGGGTKVDIKR

>  <binding result>
no binding

$$$$
>  <binder>
COV_2125 (antibody, V domains shown, human IgG1) VH: EVQLVESGGGVVQPGRSLRLSCAASGFTFSSYGMHWVRQAPGKGLEWVAVISYDGSNKYYADSVKGRFTISRDNSKNTLSLQMNSLRPEDTAVYYCAKDSPYYYDSSGYYPGYFQDWGQGSLVTVSS VL: DIQMTQSPSSLSASIGDRVTITCRASQTISDYLNWYQQKPGKAPNLLIYAASTLQSGVPSRFSGSGSGTDFTLTISSLQPEDFATYYCQQSYITPRTFGQGTKVEIK

>  <binding result>
no binding

$$$$

Data request: Check the records and state binding result for COV_2165 (antibody, V domains shown, human IgG1) VH: EVQLVESGGGLVQPGGSLRLSCAASGFTFSSYSMNWVRQAPGKGLEWVSYISSSSSTIYYADYVKGRFTISRDNAKNSLYLQMNSLRAEDRAVYYCARVARRDVAPATIAAYFLDYWGQGTLVTVSS VL: EIVLTQSPATLSLSPGERATLSCRASQSLSSYLAWYQQKPGQAPRLLIYDASTRATGIPARFSGSGSGTDFTLTISSLEPEDFAVYYCQQRSTWPRGFTFGPGTKVDIK
Data returned: no binding

Data origin, for the record: patent US20240101645A1
